targetDesc: T1, human CD19 antigen (human, UniProt P15391 20-291, limits assumed)
T1 sequence (looked up): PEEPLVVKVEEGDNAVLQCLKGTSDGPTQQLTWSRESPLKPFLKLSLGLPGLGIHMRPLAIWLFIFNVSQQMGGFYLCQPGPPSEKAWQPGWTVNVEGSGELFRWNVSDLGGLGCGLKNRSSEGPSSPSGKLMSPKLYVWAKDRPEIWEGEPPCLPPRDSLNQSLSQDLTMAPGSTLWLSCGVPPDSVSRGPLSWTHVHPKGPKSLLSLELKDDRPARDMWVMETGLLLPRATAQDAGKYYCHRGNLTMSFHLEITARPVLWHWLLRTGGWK
procedureText: SPR (Biacore), antibody captured via Fc
endpointName: koff (s⁻¹)
Express the result in s⁻¹ but write the number alone.

| binder | endpointName | endpointUnit | resultValue |
| --- | --- | --- | --- |
| humanized CD19 antibody VH5 + VL1 (antibody, V domains shown, also called Antibody No. 13) VH: QVQLQESGPGLVKPSQTLSVTCTVSGVSLPDYGVSWIRQPPGKGLEWLGVIWGSETTYYNSALKSRLTISKDTSKNQVSLKLSSLTAADTAVYYCAKHYYYGGSYAMDYWGQGTTVTVSS VL: DIQMTQSPSSLSASVGDRVTITCRASQDISKYLNWYQQKPGKAPKLLIYHTSRLHSGVPSRFSGSGSGTDFTFTISSLQPEDIATYYCQQGNTLPYTFGGGTKLEIK | koff | s⁻¹ | 0.000637 |
| humanized CD19 antibody VH1 + VL2 (antibody, V domains shown, also called Antibody No. 2) VH: QVQLQESGPGLVKPSQTLSLTCTVSGVSLPDYGVSWIRQPPGKGLEWIGVIWGSETTYYNSALKSRVTISVDTSKNQFSLKLSSVTAADTAVYYCARHYYYGGSYAMDYWGQGTTVTVSS VL: DIQMTQSPSSLSASVGDRVTITCRASQDISKYLNWYQQKPGKAPKLLIYHTSRLHSGVPSRFSGSGSGTDYTFTISSLQPEDIATYYCQQGNTLPYTFGGGTKLEIK | koff | s⁻¹ | 0.00738 |
| humanized CD19 antibody VH2 + VL1 (antibody, V domains shown, also called Antibody No. 4) VH: QVQLQESGPGLVKPSQTLSLTCTVSGVSLPDYGVSWIRQPPGKGLEWIGVIWGSETTYYNSALKSRVTISKDTSKNQVSLKLSSVTAADTAVYYCAKHYYYGGSYAMDYWGQGTTVTVSS VL: DIQMTQSPSSLSASVGDRVTITCRASQDISKYLNWYQQKPGKAPKLLIYHTSRLHSGVPSRFSGSGSGTDFTFTISSLQPEDIATYYCQQGNTLPYTFGGGTKLEIK | koff | s⁻¹ | 0.000568 |

QUERY: State its koff: humanized CD19 antibody VH2 + VL2 (antibody, V domains shown, also called Antibody No. 5) VH: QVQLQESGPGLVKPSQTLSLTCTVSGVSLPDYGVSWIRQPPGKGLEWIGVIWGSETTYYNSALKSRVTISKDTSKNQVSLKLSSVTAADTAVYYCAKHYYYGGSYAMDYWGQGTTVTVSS VL: DIQMTQSPSSLSASVGDRVTITCRASQDISKYLNWYQQKPGKAPKLLIYHTSRLHSGVPSRFSGSGSGTDYTFTISSLQPEDIATYYCQQGNTLPYTFGGGTKLEIK
RESULT: 0.000526

QUERY: Please give measured koff of the following entry: humanized CD19 antibody VH6 + VL4 (antibody, V domains shown, also called Antibody No. 16) VH: QVQLQESGPGLVKPSQTLSVTCTVSGVSLPDYGVSWIRQPPGKGLEWLGVIWGSETTYYNAALKSRLTISKDTSKNQVSLKLSSLTAADTAVYYCAKHYYYGGSYAMDYWGQGTTVTVSS VL: DIQMTQSPSSLSASVGDRVTITCRASQDISKYLNWYQQKPGKAPKLLIYHTSRLHSGVPSRFSGSGSGTDYTLTISSLQPEDIATYYCQQANTLPYTFGGGTKLEIK
RESULT: 0.00493
